Tested on: maltase
assay protocol: in vitro
readout: half-life

(Q) Lab note: need half-life for OC[C@H]1O[C@H](O[C@H]2[C@H](O)[C@@H](O)[C@H](O)O[C@@H]2CO)[C@H](O)[C@@H](O)[C@@H]1O [maltose] on maltase, anyone have it?
(A) ~30 min
